Attribution: ChEMBL document CHEMBL4513216

- ASSAY DETAILS: Toxicity liver stage against HepG2, at 10uM
- Format: cell-based
- Design: test concentration 10 uM, cell line HepG2-A16-CD81EGFP
- TEST PARAMETERS: human, HepG2-A16-CD81EGFP cells; read-out: INHIBITION
Parameter cytotoxicity at 10 µM: see the listing below.
Answer format: numeric, % implied, no suffix.

Observe how each entry below is paired with its result.
COMPOUND | PROPERTY MEASURED | READOUT UNITS | RECORDED NUMBER
Cc1cc(C)n(CC2CCCN2CCS(=O)(=O)c2ccccc2)n1 (stereo not given) | cytotoxicity at 10 µM | % | -7.23
CC(=O)N1CC(=O)N(c2cnn(C)c2)CC12CCN(CC1CC1)C2 (stereo not given) | cytotoxicity at 10 µM | % | -2.58
COCC(=O)N1CCC(c2csc(NC(C)=O)n2)CC1 | cytotoxicity at 10 µM | % | -28.6
CN(Cc1cnc(N)nc1)C(=O)c1coc(COc2ccccc2)n1 | cytotoxicity at 10 µM | % | 1.58

Name the recorded cytotoxicity at 10 µM for CCCc1cc(CNC2CCN(c3cc(C)nc(N)n3)CC2)on1 .
-6.17

Name the recorded cytotoxicity at 10 µM for CCN1c2ccc(-c3cncn3CC(=O)NC(C)(C)C)cc2CC1C (stereo not given) .
-0.579

Name the recorded cytotoxicity at 10 µM for Cn1nnnc1SC1CCCN(c2ccccc2Cl)C1=O (stereo not given) .
3.71

Name the recorded cytotoxicity at 10 µM for CC(C)(C)c1nc(CN(Cc2ccccc2F)C2CCCCC2)no1 .
-2.65
